test system: 407 cancer cell lines; experiment: Cell viability of cancer cell lines (IC50), CellTiter-Glo Viability Assay, 96 h; format: cell-based; conditions: OCUG-1, OCUG-1; read-out: Absolute IC50
QUANTITY MEASURED: pIC50
The meaning of pIC50 here: minus log10 of the concentration in molar units.

Ask | Specify measured pIC50 for Cc1nn(-c2nc(-c3ccc(C(F)(F)F)cc3)c(SC(C)C)s2)c(C(=O)O)c1-c1cccc(F)c1 [Compound A197] .
Reply | 5.90

* * *

system: 407 cancer cell lines; assay: Cell viability of cancer cell lines (IC50), CellTiter-Glo Viability Assay, 96 h; format: cell-based; settings: LS123 cells, 96 h; read-out: Absolute IC50
QUANTITY MEASURED: IC50
State the value, then name its unit.

Ask | Write IC50 of N.N.[Cl][Pt][Cl] [Cisplatin, reference compound] ; system used: 407 cancer cell lines
Reply | 12 µM

* * *

tested on: 407 cancer cell lines; assay: Cell viability of cancer cell lines (IC50), CellTiter-Glo Viability Assay, 96 h; assay type: cell-based; settings: SW579, 96 h, SW579 cells, 96 h; read-out: Absolute IC50
pIC50: −log10 of the molar value.
QUANTITY MEASURED: pIC50

Ask | Specify measured pIC50 for Cc1nn(-c2nc(-c3ccc(C(F)(F)F)cc3)c(SC(C)C)s2)c(C(=O)O)c1-c1cccc(F)c1 .
Reply | < 4.52

* * *

tested on: 407 cancer cell lines; test: Cell viability of cancer cell lines (IC50), CellTiter-Glo Viability Assay, 96 h; type: cell-based; conditions: Homo sapiens, HCC1187, 96 h, HCC1187 cells, 96 h; read-out: Absolute IC50
QUANTITY MEASURED: IC50

Ask | Write IC50 of Cc1nn(-c2nc(-c3ccc(C(F)(F)F)cc3)c(SC(C)C)s2)c(C(=O)O)c1-c1cccc(F)c1 [Compound A197] ; system used: 407 cancer cell lines
Reply | > 30 µM

* * *

Tested on: 407 cancer cell lines
Experiment: Cell viability of cancer cell lines (IC50), CellTiter-Glo Viability Assay, 96 h
Format: cell-based
Details: BT-20 cells, 96 h; read-out: Absolute IC50
Procedure: Viability was determined by using the 50% inhibitory concentration (IC50) as determined with the CellTiter-Glo® Viability Assay (Promega). Experiments were initiated by first thawing and equilibrating the CellTiter-Glo® Buffer to room temperature. The lyophilized CellTiter-Glo® Substrate was also equilibrated to room temperature. […] Cells were harvested during the logarithmic growth period, counted, and the cell concentration adjusted to 4.44×10^4 cells/mL using culture medium. […]
QUANTITY MEASURED: pIC50
The meaning of pIC50 here: minus log10 of the concentration in molar units.

Ask | Write pIC50 of N.N.[Cl][Pt][Cl] [Cisplatin, reference compound] ; system used: 407 cancer cell lines
Reply | 5.67

* * *

tested on: 407 cancer cell lines; assay: Cell viability of cancer cell lines (IC50), CellTiter-Glo Viability Assay, 96 h; format: cell-based; conditions: CoC1, 96 h, CoC1 cells, 96 h; read-out: Absolute IC50
QUANTITY MEASURED: IC50 (nM)
Report the figure in nM without appending any unit label.

Ask | Specify measured IC50 for Cc1nn(-c2nc(-c3ccc(C(F)(F)F)cc3)c(SC(C)C)s2)c(C(=O)O)c1-c1cccc(F)c1 .
Reply | 1320

Data credit: patent US20210278408A1
